Hi there, I'd appreciate the recorded LD50 for every entry that follows.
test system: Mus musculus; assay: Toxicity in ip dosed mouse measured over 72 hrs; assay type: organism-based; details: in vivo
Answers are plain numbers, in µM/g.

>>> reportedmeasurement("O=C(O)c1ccc(NC(=O)[C@@H]2CCCN2S(=O)(=O)c2ccccc2)cc1")
10.06
>>> reportedmeasurement("Cc1ccccc1S(=O)(=O)N1CC(O)C[C@H]1C(=O)Nc1ccc(C(=O)O)cc1 (stereo partly drawn)")
9.98

// below: LD50 requested for another compound
Prompt: // returns reported LD50 for input O=C(O)c1ccc(NC(=O)[C@@H]2CC(O)CN2S(=O)(=O)c2ccc([N+](=O)[O-])cc2)cc1 (stereo partly drawn)
Completion: 10.28

Where these numbers come from: ChEMBL document CHEMBL4152268
